Measured inhibition at 200 ppm, listed per entry.
# System: Botryotinia fuckeliana (Botrytis cinerea)
# Assay Details: Botryotinia fuckeliana (Botrytis cinerea) liquid culture (gray mould)
# Assay type: cell-based
# Experimental Conditions: 200 ppm in the formulation, Vogels broth, 24° C., photometric, 3-4 days after application, vs untreated control, read-out: disease control (inhibition of growth)

{"Compound": "COc1ccnc(C(=O)N[C@@H](C)C(=O)OC(C)C(C)c2nc3ccccc3s2)c1O (stereo partly drawn) [I.e.001]", "inhibition at 200 ppm": "≥ 80%"}
{"Compound": "COc1ccnc(C(=O)N[C@@H](C)C(=O)OC(C)C(C)n2ccc3ccc(Cl)cc32)c1O (stereo partly drawn) [I.x.001]", "inhibition at 200 ppm": "≥ 80%"}
{"Compound": "COc1ccnc(C(=O)N[C@@H](C)C(=O)OC(C)C(C)n2ccc3ccc(C(F)(F)F)cc32)c1O (stereo partly drawn) [I.z.001]", "inhibition at 200 ppm": "≥ 80%"}
{"Compound": "COc1ccnc(C(=O)N[C@@H](C)C(=O)OC(C)C(C)c2sc3ccccc3c2C)c1O (stereo partly drawn) [I.as.001]", "inhibition at 200 ppm": "≥ 80%"}
{"Compound": "COc1ccnc(C(=O)N[C@@H](C)C(=O)OC(C)C(C)n2ccc3cc(Cl)c(Cl)cc32)c1O (stereo partly drawn) [I.au.001]", "inhibition at 200 ppm": "≥ 80%"}
{"Compound": "COc1ccnc(C(=O)N[C@@H](C)C(=O)OC(C)C(C)n2ccc3cc(Cl)ccc32)c1O (stereo partly drawn) [I.y.001]", "inhibition at 200 ppm": "≥ 80%"}
{"Compound": "COc1ccnc(C(=O)N[C@@H](C)C(=O)OC(C)C(C)n2ccc3c(Br)ccc(F)c32)c1O (stereo partly drawn) [I.ab.001]", "inhibition at 200 ppm": "≥ 80%"}
{"Compound": "COc1ccnc(C(=O)N[C@@H](C)C(=O)OC(C)C(C)c2ccc3ccccc3n2)c1O (stereo partly drawn) [I.s.001]", "inhibition at 200 ppm": "≥ 80%"}
{"Compound": "COc1ccnc(C(=O)N[C@@H](C)C(=O)OC(C)C(C)n2cc(C#N)c(-c3cccc(Cl)c3Cl)c2)c1O (stereo partly drawn) [I.ag.001]", "inhibition at 200 ppm": "≥ 80%"}
{"Compound": "COc1ccnc(C(=O)N[C@@H](C)C(=O)OC(C)C(C)n2cc(C#N)c(-c3ccccc3Cl)c2)c1O (stereo partly drawn) [I.ah.001]", "inhibition at 200 ppm": "≥ 80%"}
{"Compound": "COc1ccnc(C(=O)N[C@@H](C)C(=O)OC(C)C(C)n2ccc3ccc(F)cc32)c1O (stereo partly drawn) [I.v.001]", "inhibition at 200 ppm": "≥ 80%"}
{"Compound": "COc1ccnc(C(=O)N[C@@H](C)C(=O)OC(C)C(C)n2ccc3cc(F)ccc32)c1O (stereo partly drawn) [I.w.001]", "inhibition at 200 ppm": "≥ 80%"}
